B1: Transcription elongation factor A N-terminal and central domain-containing protein, residues 30 to 77; numbered along this chain, Q8N8B7 (parent)
chain: LTELETIYVTKEHLQETDVVRAVYRVLKNCPSVALKKKAKCLLSKWKA

Variants of: B1
assay: abundance fitness (aPCA) (normalised: wild type 0, dead -1); higher = more abundant; growth selection in yeast, the domain comes from the species named
experimental conditions: Homo sapiens
Known abundance fitness of a selection of variants
Give only the figure.

- LTELETIYVTKEHLQETDVVRAVYRVLKNCPSVALKKKAKCLLGKWKA [S44G]: -0.141
- LTELETIYVTKEHLQETDVVRAVYRVLKNCPSVALKKKAKCFLSKWKA [L42F]: -0.174
- LTELECIYVTKEHLQETDVVRAVYRVLKNCPSVALKKKAKCLLSKWKA [T6C]: -0.262
- LTELETIYVTKEHLQETDVVRAVYRGLKNCPSVALKKKAKCLLSKWKA [V26G]: -0.095

The variant listed as LTELETIYVTKEHLQETDVVRAVYRVLKNCPSVLLKKKAKCLLSKWKA [A34L] shows abundance fitness equal to -0.279

The variant listed as LTELELIYVTKEHLQETDVVRAVYRVLKNCPSVALKKKAKCLLSKWKA [T6L] shows abundance fitness equal to -0.616

The variant listed as LTELETIYVTKEHLQETDVVRAVYRVLKNCPNVALKKKAKCLLSKWKA [S32N] shows abundance fitness equal to -0.017

The variant listed as LTELETIYVTKEHLQETDVVRAVYRVLKNCPSVALKKKAKCLLSKYKA [W46Y] shows abundance fitness equal to -0.504

The variant listed as LTELETIYVTKEHLQETDVVRAVYRVLKNCPSVALKKKAKCLLSYWKA [K45Y] shows abundance fitness equal to -0.1

The variant listed as LTELETIYVTKEHLQETDLVRAVYRVLKNCPSVALKKKAKCLLSKWKA [V19L] shows abundance fitness equal to -0.121

The variant listed as LTELETIYVTKEHLQEVDVVRAVYRVLKNCPSVALKKKAKCLLSKWKA [T17V] shows abundance fitness equal to -0.526

The variant listed as LTELETIYVTKEHLQETDVVRAVYRTLKNCPSVALKKKAKCLLSKWKA [V26T] shows abundance fitness equal to 0.279

The variant listed as LTVLETIYVTKEHLQETDVVRAVYRVLKNCPSVALKKKAKCLLSKWKA [E3V] shows abundance fitness equal to -0.102
